Catalogue of viability readings, one per entry.
# protocol: reversal of MRP1-mediated doxorubicin resistance, pilot screen, H69AR cells, doxorubicin co-treatment (AID 601)
# condition context: H69AR cells, CellTiter-Glo, 72 h; compound alone cytotoxicity; at 10 µM
Returns: string containing the number followed by the unit.

Task: For the compound COc1cccc(NC(=O)COC(=O)c2ccco2)c1 , give its reported viability.
Output: 83.8%

Task: For the compound CC(C)C(c1nnnn1CC1CCCO1)N1CCN(Cc2ccc3c(c2)OCO3)CC1 (stereo not drawn) , give its reported viability.
Output: 95.3%

Task: For the compound CSc1nc(=NC(C)=O)ss1 , give its reported viability.
Output: 71.8%

Task: For the compound O=C(CN(CCc1ccccc1)C(=O)CN1C(=O)COc2ccccc21)NCc1ccco1 , give its reported viability.
Output: 78.6%

Task: For the compound O=C(CSc1nnc2scc(-c3ccccc3)n12)N1CCN(Cc2ccccc2)CC1 , give its reported viability.
Output: 78.5%

Task: For the compound Cc1cc(C(=O)COC(=O)C2COc3ccccc3O2)c(C)n1CC1CCCO1 (stereo not drawn) , give its reported viability.
Output: 94%

meta.source: PubChem BioAssay
